Reference source for all entries: the supplement of paper PMC3334620

- measurement target: Nrg2 (UniProt P38082)
- Sequence: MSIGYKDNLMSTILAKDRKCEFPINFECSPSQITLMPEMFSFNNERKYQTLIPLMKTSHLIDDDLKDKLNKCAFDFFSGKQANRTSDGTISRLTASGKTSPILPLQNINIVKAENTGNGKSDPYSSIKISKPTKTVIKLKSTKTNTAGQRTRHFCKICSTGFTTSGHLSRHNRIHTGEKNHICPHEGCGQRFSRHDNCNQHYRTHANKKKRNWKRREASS
- method summary: PBM E-score (8-mer binding enrichment) (E-score (-0.5 to 0.5)); higher = stronger / more preferred TF binding
- settings: protein concentration: 100 nM; construct: GST-full length
Over roughly 33,000 sequences, “E-score (-0.5 to 0.5)” has its median near -8e-05; the highest 2% begin near 0.23. Shown is part of a subset that was picked to be rich in the highest values.
Each item that follows carries a reported PBM E-score.

sequence input	PBM E-score
ACAATACC	0.291
ACACAGGC	0.0691
AAGATAGC	0.0443
CGGGTGAA	0.16
GCCGCGCC	-0.0901
CAACAGGG	0.312
AATCGGAG	0.105
CGCGAACA	0.264
CGCGACCA	0.23
AAGACCGA	-0.018
ACCGACAA	0.0162
ACCCAGGA	-0.227
GCATAGTA	0.23
ACAATACG	0.0515
ACACAGGA	-0.0296
CATTTGAA	0.0105
CCCCTGAC	0.235
GCAGTGGC	-0.173
AAAATCTT	-0.0461
GCGCACGC	-0.0951
AGACATTC	-0.0988
CTCCTGAC	0.0802
GAGTCTCC	-0.178
ACAATACT	0.241
TATCGGAA	0.0162
CAAATGGA	-0.0362
GCCCCCAA	-0.331
ATACAGGC	-0.0144
CCCGACAG	-0.165
CCTAAGGC	-0.191
GGCGACCA	-0.146
GCGCACGA	0.238
TGCGACAA	0.0655
CTCTCAAC	-0.121
GGCGACAA	-0.0104
ATACAGGA	-0.00019
AGCAAACA	0.0834
ACGCGCGG	0.192
ACAGCGGG	-0.0296
CCATAGTA	0.0238
TCCAATAA	0.0718
AGGCATAT	-0.0234
AGCGACCA	-0.0183
AAAAGCGT	-0.0481
GGCGAACA	-0.00418
TCGCGCGA	0.138

###

- measurement target: Nrg2 (UniProt P38082)
- Sequence: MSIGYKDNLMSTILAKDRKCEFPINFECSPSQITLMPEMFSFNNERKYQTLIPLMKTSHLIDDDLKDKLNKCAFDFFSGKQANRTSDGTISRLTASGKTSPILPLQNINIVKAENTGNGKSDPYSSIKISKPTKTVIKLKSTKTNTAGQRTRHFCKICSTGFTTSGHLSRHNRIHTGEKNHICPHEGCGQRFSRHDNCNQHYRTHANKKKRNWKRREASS
- method summary: PBM E-score (8-mer binding enrichment) (E-score (-0.5 to 0.5)); higher = stronger / more preferred TF binding
- settings: protein concentration: 100 nM; construct: GST-full length
Whole data set: some 33,000 sequences, median “E-score (-0.5 to 0.5)” near -8e-05, cut for the highest 2% near 0.23. What follows is part of a selection rich in the highest values, with near analogues and random picks from the rest.
Each item that follows carries a reported PBM E-score.

sequence input	PBM E-score
AACGAAAC	0.117
GCAGGGGA	-0.192
CCAGGGAG	-0.107
CGCCGGAC	0.0155
ATATATTG	-0.0404
CGGGCTAC	-0.0936
CCAGGGAC	0.366
GTATATTA	0.107
ATTAATCA	0.171
ATATATTA	0.245
ATTTACTG	0.107
CGCCCCAA	0.261
CCCAGTCG	-0.143
GATCCGAA	0.243
GCAGGGAA	0.238
GCAGGGCC	0.101
CTATATTA	0.229
ACTACCTG	0.0949
CTTTACTA	0.26
CCGAATTA	-0.00177
ATTTATCC	0.247
CAGGTTAA	-0.0788
CTGTAGTA	0.245
ATTTACTC	0.271
ACCAACAG	-0.00807
ACGGAAGC	-0.0173
ATGCTCGG	0.117
ACCAACAT	0.0787
GGGCCCAC	0.203
TATCCGAA	-0.0137
GATCCAAA	0.284
AAGGCCCA	-0.13
CATCCGAA	0.168
GGCGAGAA	0.16
GTTTATTA	0.194
ACCCTTCT	-0.104
AGGGCCCA	0.359
CTCTATTA	-0.105
ACGAATTA	0.1
CGCCCTAA	-0.171
ACAGCTGC	-0.0727
GCAGGGAC	0.28
TCAGGGAA	0.0408
CTCCCAAC	-0.0556
AACGAAAT	0.251
AAAAGTCG	0.0204

###

Each item that follows carries a reported PBM E-score.
- measurement target: Nrg2 (UniProt P38082)
- Sequence: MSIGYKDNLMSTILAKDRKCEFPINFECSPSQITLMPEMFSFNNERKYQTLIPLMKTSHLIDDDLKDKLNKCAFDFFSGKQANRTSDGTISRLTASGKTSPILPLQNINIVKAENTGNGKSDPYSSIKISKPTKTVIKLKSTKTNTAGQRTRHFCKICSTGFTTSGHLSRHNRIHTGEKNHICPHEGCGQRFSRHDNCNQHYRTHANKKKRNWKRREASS
- method summary: PBM E-score (8-mer binding enrichment) (E-score (-0.5 to 0.5)); higher = stronger / more preferred TF binding
- settings: protein concentration: 100 nM; construct: GST-full length
Over roughly 33,000 sequences, “E-score (-0.5 to 0.5)” has its median near -8e-05; the highest 2% begin near 0.23. The list comes from a sample in which the highest values are over-represented; it also holds close analogues and randomly drawn sequences.
observable: PBM E-score

sequence input	obs value
CATCTCAA	-0.0442
TATTAGAA	0.249
AGTTTGAC	-0.104
CACCGCGC	-0.0311
CCACTGTA	0.064
AGCCAAAC	0.121
CATTAAAA	0.252
AGATTCCG	0.101
AGCGCACT	-0.0126
TAAGTGAA	0.0844
GACATTGC	-0.0455
TACTAAAA	0.0854
ATCATCAG	0.0405
TAACCCAA	-0.00379
AATTCTAC	0.231
AGAAGCCC	-0.0779
AATCTCAA	0.124
CATCTCAG	0.23
AGGGTACA	0.181
CAGAGTCC	0.0801
AAGGAAAG	-0.137
CATTAAAG	0.119
GATTAAAA	0.157
AAAGGTCC	0.0985
CTAAGGAA	0.0506
AAGGGTGT	0.0853
AGGTGTAC	-0.145
GTAAGACA	-0.0374
AGCAACTC	-0.0833
AATTCAAC	0.256
CATTAGAA	0.0605
AGGGTCCG	0.374
ACGGTCCG	-0.231
GATTAGAA	0.0967
AGCGCACA	0.137
AGAATGGC	0.0093
GTAGGCGA	0.0848
ATGTCCGA	-0.0732
GATTCAAC	0.00265
AGTTTGAA	0.23
AGGGGATC	0.0237
CATCTTAG	0.0135
AAAGCAAA	0.102
CCAATACG	-0.165
AATTAAAA	0.126
AGGGTACC	0.0534

###

Each item that follows carries a reported PBM E-score.
- measurement target: Nrg2 (UniProt P38082)
- Sequence: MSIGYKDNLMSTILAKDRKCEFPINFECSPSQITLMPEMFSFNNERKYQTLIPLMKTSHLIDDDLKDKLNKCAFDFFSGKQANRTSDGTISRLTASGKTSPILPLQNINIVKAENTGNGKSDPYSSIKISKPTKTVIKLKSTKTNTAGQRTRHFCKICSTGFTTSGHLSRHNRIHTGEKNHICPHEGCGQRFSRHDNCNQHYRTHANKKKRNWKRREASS
- method summary: PBM E-score (8-mer binding enrichment) (E-score (-0.5 to 0.5)); higher = stronger / more preferred TF binding
- settings: protein concentration: 100 nM; construct: GST-full length
The full ranking holds about 33,000 sequences; the median of “E-score (-0.5 to 0.5)” is about -8e-05, and the highest 2% start at about 0.23. This excerpt belongs to a sample that is enriched for the highest values.

sequence input	PBM E-score
GGTCTTAA	-0.301
GTATGGCA	0.0816
TACCTGAA	0.0117
AGAGTTAG	-0.0429
GCTAACCA	-0.172
AACGAGGC	-0.139
GTATAAAC	0.156
GTTATAAA	0.0259
TATGGGGA	0.283
TGAGTCAA	0.0756
AGTAAGGC	-0.036
GTCCCACA	0.0612
TCCGGCCA	0.00685
AGCGATCA	-0.156
GAAAAGTC	-0.0781
AATGGGGA	0.0109
GCAACTAA	0.288
TGTTGCAA	0.268
GCTGATAC	-0.0795
ATATATGG	0.23
GGTTCAAA	0.0475
TCAACTAA	0.0939
CTAATAAA	0.259
ATTGTGCG	-0.0707
TTTATAAA	0.245
CATTGCAA	-0.00795
ACACGCGT	0.00123
AACAAGTA	-0.0255
CTTATAAA	0.131
TATTGCAA	0.253
ATATATAT	0.107
AGCGATCC	-0.129
CCCCTGTA	0.144
ATTGATTG	0.142
GTATATAC	0.0119
ATATAACG	0.243
GGTCTAGA	-0.109
ATATATAC	0.329
ATAACTAA	0.0389
ATAATACG	0.18
CCTGATAG	-0.153
GAATCCTC	-0.1
ATGCTCCA	0.0544
CCCTGTCC	0.0104
ACAGCGCA	0.00939
AGCAAGGC	-0.0107
ATTGATTC	0.244
AGTGAAGC	0.054
GAATTCGC	0.141
CGCATGCG	0.0387
GGCGCCAA	0.133
AGCAAGGG	0.261
AAATTCGA	-0.0488
AGCATGCA	0.00231
CACCGTGA	-0.113
CAGTACGA	0.206
CTATTCGC	0.0444
ATGGGTAG	-0.13
CGTGGGGA	0.121
ATAATACA	0.282
ATCTGAGG	0.0579
ACAAAACA	0.119
AAATTCGG	0.205
ATCTCATC	0.0993
CTAATATA	0.13
CCAACTAA	0.0905
CAATTCGA	-0.135
CCCTGCCC	-0.1
AAATTCGC	0.234
CAGGTGGG	-0.0155
ATATAAAG	0.0638
ATAATATA	0.268
AATTGCAA	0.0259
CCATGAGC	-0.047
TGATAGAA	-0.0926
CAATTCGC	0.277
CTGAGACA	0.0347
TAAACTAA	0.186
TCCCTGAA	0.25
GGTTGCAA	0.111
CTGCACGA	0.0401
CATGGGGA	0.135
TAGAGCGA	-0.079
CTTGATAA	0.147
ATAATAAA	0.224
GTTGCCAA	0.0119
AAATTCGT	0.235
AAAACTAA	0.234
AATGCACC	0.0152
ATATAACA	0.078
GGCGGGAA	-0.11
